Parameter: pKd. Scope: all listed entries.
systemTested: SARS-CoV-2 Receptor Binding Domain (RBD) protein (SARS-CoV-2)
assaySummary: SPR (Carterra LSA), scFv captured via anti-V5, RBD as analyte, 1:1 fit
Schema: pKd number; meaning minus log10 of the concentration expressed in molar units.

Qu. Determine its reported pKd: COVID19_P24_C06 (scFv, V domains shown) VH: QVQLVQSGAEVKKPGASVKVSCKASGYIFTSYPIHWVRQAPGQGLEWMGWMNPNSGNTGYAQKFQGRVTMTRDTSTSTVYMELSSLRSEDTAVYYCARDRGSYDTDAFDIWGQGTMVTVSS VL: DIQMTQSPSSLSASVGDRVTITCRASQDISNYLNWYQQKPGKAPKLLIYAASNLQSGVPSRFSGSGSGTDFTLTISSLQPEDFATYYCQQANSFPSTFGQGTKLEIKR
Ans. 9.52

Qu. Determine its reported pKd: COVID19_P24_H06 (scFv, V domains shown) VH: EVQLLESGGGLVQPGGSLRLSCAASGFSFSNYDMHWVRQAPGKGLEWVAVISYDGGFKLYADSVKGRFTISRDNAKNSLYLRMNSLRSEDTAVYYCARGQVRGSGPQVVVMDVWGKGTTVTVSS VL: DIQMTQSPSSLSASVGDRVTITCQASQGIRNDLGWYQQKPGKAPKLLIYDASRLQSGVPSRFSGSGSGTDFTLTISSLQPEDFATYYCQQYYSTPPLTFGQGTKVEIKR
Ans. 9.30

Qu. Determine its reported pKd: COVID19_P11_H07 (scFv, V domains shown) VH: QVQLVQSGAEVKKPGASVKVSCKASGYTFTSYDINWVRQAPGQGLEWMGWMNSNSGSTGYAQKFQGRVTMTRDTSTSTVYMELSSLRSEDTAVYYCARGWMAYDAFDIWGQGTMVTVSS VL: DIQMTQSPSSLSASVGDRVTITCQASQSIYNYLNWYQQKPGKAPKLLIYDASNLETGVPSRFSGSGSGTDFTLTISSLQPEDFATYYCQQAISFPLTFGGGTKVEIKR
Ans. 9.30
